Measured values drawn from ChEMBL document CHEMBL3045954 for this set.

test system: Mus musculus; experiment: Antidepressant activity in overnight fasted Mus musculus (mouse) assessed as decrease in immobility time at 10 mg/kg, ip administered 60 min prior to testing measured for 5 min by tail suspension test (reference value: 169.8 +/- 13 secs); type: functional; settings: route intraperitoneal
RESULT TYPE: Time (s)
The reply should contain only the number, in s.

Consider the compound shown here: "CCN(CC)CCSc1n[nH]c(-c2ccccc2)n1" What is its recorded Time?
145.8

Also "c1ccc(-c2nc(SCCN(C3CCCCC3)C3CCCCC3)n[nH]2)cc1" ?
117

Also "CN(C)CCSc1n[nH]c(-c2ccc(Cl)cc2Cl)n1" ?
109

Also "CN(C)CCSc1n[nH]c(-c2ccc(O)cc2)n1" ?
161.2

Also "Oc1ccccc1-c1nc(SCCN(C2CCCCC2)C2CCCCC2)n[nH]1" ?
162.5

Also "CCN(CC)CCSc1n[nH]c(-c2ccc(Cl)cc2Cl)n1" ?
121.8
